Just for reference, patent US20230151091A1 is where these values come from.

# Study target: T1, hFz: Fz domain and C-terminal flanking sequence of human MuSK (K314-T495) with C-terminal Avi- and His6-tags (human, UniProt O15146 314-495, biotinylated in vitro using the BirA enzyme)
# T1 construct: also called human Fz; not shown: Avi- and His6-tags
# T1 sequence: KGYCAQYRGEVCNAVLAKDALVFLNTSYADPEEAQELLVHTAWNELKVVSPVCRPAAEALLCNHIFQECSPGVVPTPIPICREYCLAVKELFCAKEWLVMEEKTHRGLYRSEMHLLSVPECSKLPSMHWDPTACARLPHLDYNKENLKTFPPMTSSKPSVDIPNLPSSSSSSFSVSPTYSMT
# Test details: bead-binding assay, IgG format: biotinylated antigen on streptavidin beads, flow cytometry, 1:1 fit; average ± s.d., n=3
Assay readout: log10 Kd (log10 of the value in nM)

# Binder, Assay readout, Measurement
rows = [
    ("hIgG1-X2 (antibody, V domains shown, human IgG1 Fc containing LALA mutations; also called hIgG-X2; X2 in the human IgG1 format) VH: EVQLVESGGGLVQPGGSLRLSCAASGFTVSSSSIHWVRQAPGKGLEWVASISSSYGSTSYADSVKGRFTISADTSKNTAYLQMNSLRAEDTAVYYCARSEGDRYVSGYMGMDYWGQGTLVTVSS VL: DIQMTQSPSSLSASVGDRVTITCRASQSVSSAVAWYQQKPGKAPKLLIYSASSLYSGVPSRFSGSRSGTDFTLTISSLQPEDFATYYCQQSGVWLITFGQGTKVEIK", "log10 Kd", -0.38),
    ("hIgG1-X17 (antibody, V domains shown, human IgG1 Fc containing LALA mutations; also called hIgG-X17; X17 in human IgG1 format) VH: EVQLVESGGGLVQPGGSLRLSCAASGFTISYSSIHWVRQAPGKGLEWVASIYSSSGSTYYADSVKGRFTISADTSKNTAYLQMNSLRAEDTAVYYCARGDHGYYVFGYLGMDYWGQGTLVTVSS VL: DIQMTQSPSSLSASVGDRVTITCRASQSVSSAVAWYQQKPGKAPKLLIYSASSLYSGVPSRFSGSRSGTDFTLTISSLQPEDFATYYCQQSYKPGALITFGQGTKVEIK", "log10 Kd", -0.25),
    ("mIgG2a-X17 (antibody, V domains shown, chimeric antibody of a human Fab (human CH1) and mouse IgG2a Fc with the LALAPG mutations; also called X17-mIgG2a-LALAPG; antibody X17) VH: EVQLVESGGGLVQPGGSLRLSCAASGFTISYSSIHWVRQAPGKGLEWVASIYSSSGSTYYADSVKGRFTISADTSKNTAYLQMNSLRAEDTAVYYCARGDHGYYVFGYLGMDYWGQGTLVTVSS VL: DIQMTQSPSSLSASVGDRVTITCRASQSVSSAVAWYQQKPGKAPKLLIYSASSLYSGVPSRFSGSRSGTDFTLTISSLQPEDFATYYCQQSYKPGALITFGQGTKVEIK", "log10 Kd", -0.21),
    ("mIgG2a-X3 (antibody, V domains shown, mouse IgG2a format; also called X3 in mouse IgG2a format) VH: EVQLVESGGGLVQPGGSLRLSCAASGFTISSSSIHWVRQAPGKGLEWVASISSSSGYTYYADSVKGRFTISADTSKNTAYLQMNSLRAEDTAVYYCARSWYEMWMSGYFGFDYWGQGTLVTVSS VL: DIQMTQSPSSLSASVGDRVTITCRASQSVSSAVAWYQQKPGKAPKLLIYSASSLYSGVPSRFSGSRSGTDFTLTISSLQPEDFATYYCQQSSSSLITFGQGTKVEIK", "log10 Kd", -1.10),
    ("hIgG1-X3 (antibody, V domains shown, human IgG1 Fc containing LALA mutations; also called X3 in human IgG1 format) VH: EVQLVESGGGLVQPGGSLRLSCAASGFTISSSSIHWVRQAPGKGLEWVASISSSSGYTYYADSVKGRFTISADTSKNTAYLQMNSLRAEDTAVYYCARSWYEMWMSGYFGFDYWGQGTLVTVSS VL: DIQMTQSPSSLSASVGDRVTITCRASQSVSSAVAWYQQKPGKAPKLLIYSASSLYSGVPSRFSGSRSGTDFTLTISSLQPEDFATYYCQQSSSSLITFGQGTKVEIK", "log10 Kd", -1.24),
]
